Reported growth values are given for each entry in this list.
- Tested on: Klebsiella aerogenes DSM 30053
- EXPERIMENTAL_DETAILS: growth (OD595) fold change vs plate DMSO controls (fold change (ratio)); higher = more growth
- CONDITIONS_USED: 20 µM; incubation time: 27 h, anaerobic, 37 °C
READOUT_KIND: growth

MOLECULE	READOUT_KIND	EXPERIMENTAL_RESULT
CNC(=O)c1cc(C#N)cc(C)c1NC(=O)c1cc(Br)nn1-c1ncccc1Cl	growth	0.981
CCn1cc(C(=O)O)c(=O)c2cc3c(cc21)OCO3	growth	0.348
OC(c1ccccc1)(c1ccccc1)C1CCNCC1	growth	1.01
C[C@]12CC[C@H](O)C[C@H]1CC[C@@H]1[C@@H]2C[C@@H](O)[C@]2(C)[C@@H](C3=CC(=O)OC3)CC[C@]12O	growth	1.03
CC(=NC#N)N(C)Cc1ccc(Cl)nc1	growth	0.989
Cc1cc(C(F)(C(F)(F)F)C(F)(F)F)ccc1NC(=O)c1cccc(I)c1C(=O)NC(C)(C)CS(C)(=O)=O	growth	1.02
C[C@]12C/C(=C/O)C(=O)C[C@@H]1CC[C@@H]1[C@@H]2CC[C@@]2(C)[C@H]1CC[C@]2(C)O	growth	1
COP(=S)(OC)SCN1C(=O)c2ccccc2C1=O	growth	1.05
O=C(NCCc1ncc(C(F)(F)F)cc1Cl)c1ccccc1C(F)(F)F	growth	1.16
CC(=O)O[C@H]1C[C@H](O[C@H]2[C@@H](O)C[C@H](O[C@H]3[C@@H](O)C[C@H](O[C@H]4CC[C@@]5(C)[C@H](CC[C@@H]6[C@@H]5C[C@@H](O)[C@]5(C)[C@@H](C7=CC(=O)OC7)CC[C@]65O)C4)O[C@@H]3C)O[C@@H]2C)O[C@H](C)[C@H]1O[C@@H]1O[C@H](CO)[C@@H](O)[C@H](O)[C@H]1O [Lanatoside C]	growth	0.998
CN1[C@@H]2CC[C@H]1C[C@@H](OC(=O)[C@H](CO)c1ccccc1)C2	growth	1.06
Oc1ccc(C(c2ccc(O)cc2)(C(F)(F)F)C(F)(F)F)cc1	growth	0.956
CCC1(CC)C(=O)C=CNC1=O	growth	1.04
CC(Oc1ccc(Oc2ncc(C(F)(F)F)cc2Cl)cc1)C(=O)O (stereo unspecified)	growth	1.01
C[C@@H]1CC[C@H]2[C@@H](C)C(=O)O[C@@H]3O[C@@]4(C)CC[C@@H]1[C@]32OO4	growth	1.02
CCC(COC(=O)c1cc(OC)c(OC)c(OC)c1)(c1ccccc1)N(C)C (stereo unspecified)	growth	0.999

###

Reported fold change of Putrescine concentration values are given for each entry in this list.
- Test system: Escherichia coli IAI1
- EXPERIMENTAL_DETAILS: fold change of Putrescine concentration vs plate DMSO controls (fold change (ratio)); higher = more amine produced, active = hit call of the paper (significant change in both replicates, either direction)
- CONDITIONS_USED: 20 µM; incubation time: 27 h, anaerobic, 37 °C
READOUT_KIND: fold change of Putrescine concentration

                                   molecule  experimental_result
0                     CCC1(CC)C(=O)C=CNC1=O                 1.01
1                CSc1nc(NC(C)C)nc(NC(C)C)n1                0.946
2  Fc1ccc(C(OCCN2CCN(CCCc3ccccc3)CC2)c2ccc(F)cc2)cc1                 1.01
3  CN1C[C@H](CNC(=O)OCc2ccccc2)C[C@@H]2c3cccc4c3c(cn4C)C[C@H]21                 1.04
4  CC1(C)[C@H](C(=O)O[C@H](C#N)c2cccc(Oc3ccccc3)c2)[C@@H]1C=C(Br)Br                0.983
5  O=C(Nc1ccc(F)cc1F)c1cccnc1Oc1cccc(C(F)(F)F)c1                 1.01
6  O=[N+]([O-])O[C@H]1CO[C@H]2[C@@H]1OC[C@H]2O[N+](=O)[O-] [Isosorbide dinitrate]                 1.06
7  Cc1cc(C)c(C2=C(OC(=O)CC(C)(C)C)C3(CCCC3)OC2=O)c(C)c1                 1.01
8  CO/N=C(/C(=O)OC)c1ccccc1CO/N=C(\C)c1cccc(C(F)(F)F)c1                0.982

###

- System: Clostridium sporogenes DSM 1664
- EXPERIMENTAL_DETAILS: fold change of Tryptamine concentration vs plate DMSO controls (fold change (ratio)); higher = more amine produced, active = hit call of the paper (significant change in both replicates, either direction);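 for the amine columns active = adjusted P below 0.05 in both replicates with a change the same way and a mean fold change under 0.8 or over 1.25; inactive = the rest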
- CONDITIONS_USED: 20 µM; incubation time: 27 h, anaerobic, 37 °C
Where a name gives a salt, the structure may show the parent alone.
Possible outcomes: True (active), False (inactive)

COMPOUND	TESTED_TARGET	ASSIGNED_CATEGORY
NC(=O)CN1CCCC1=O	Clostridium sporogenes DSM 1664	False
CCc1cnc(C2=NC(C)(C(C)C)C(=O)N2)c(C(=O)O)c1 (stereo not given)	Clostridium sporogenes DSM 1664	False
NCC(CC(=O)O)c1ccc(Cl)cc1 (stereo not given)	Clostridium sporogenes DSM 1664	False
C=CC[C@]1(O)CC[C@H]2[C@@H]3CCC4=CCCC[C@@H]4[C@H]3CC[C@@]21C	Clostridium sporogenes DSM 1664	False
CC(C)C[C@H]1C(=O)N2CCC[C@H]2[C@]2(O)O[C@](NC(=O)[C@@H]3C=C4c5cccc6[nH]c(Br)c(c56)C[C@H]4N(C)C3)(C(C)C)C(=O)N12 [Bromocryptine mesylate]	Clostridium sporogenes DSM 1664	False
C=C(C)[C@@H]1[C@H]2OC(=O)[C@@H]1[C@]1(O)C[C@H]3O[C@]34C(=O)O[C@H]2[C@]14C	Clostridium sporogenes DSM 1664	False
COc1cccc(C2(O)CCCCC2CN(C)C)c1 (stereo not given) [Tramadol hydrochloride]	Clostridium sporogenes DSM 1664	False
CC(=O)OCC1=C(C(=O)O)N2C(=O)[C@@H](N)[C@H]2SC1	Clostridium sporogenes DSM 1664	False
CCc1cccc(C)c1N(C(=O)CCl)[C@@H](C)COC	Clostridium sporogenes DSM 1664	False
CC1COC(Cn2cncn2)(c2ccc(Oc3ccc(Cl)cc3)cc2Cl)O1 (stereo not given)	Clostridium sporogenes DSM 1664	False
N#Cc1c[nH]cc1-c1cccc2c1OC(F)(F)O2	Clostridium sporogenes DSM 1664	False
CNCC(O)c1ccc(O)cc1 (stereo not given) [Synephrine]	Clostridium sporogenes DSM 1664	False
N#CC(CCc1ccc(Cl)cc1)(Cn1cncn1)c1ccccc1 (stereo not given)	Clostridium sporogenes DSM 1664	False
COc1ccc(C(=CC(=O)N2CCOCC2)c2ccc(Cl)cc2)cc1OC (mixture of isomers)	Clostridium sporogenes DSM 1664	False
CCC1(c2ccc(N)cc2)CCC(=O)NC1=O (stereo not given) [Glutethimide, para-amino]	Clostridium sporogenes DSM 1664	False
O=C1C2CC=CCC2C(=O)N1SC(Cl)(Cl)Cl (stereo not given)	Clostridium sporogenes DSM 1664	False
CC(=O)[C@H]1CC[C@H]2[C@@H]3CC[C@H]4C[C@H](O)CC[C@]4(C)[C@H]3C(=O)C[C@]12C	Clostridium sporogenes DSM 1664	False
CCC1(c2cccc(O)c2)CCCCN(C)C1 (stereo not given) [Meptazinol hydrochloride]	Clostridium sporogenes DSM 1664	False
COCC(=O)N(c1c(C)cccc1C)[C@H](C)C(=O)OC	Clostridium sporogenes DSM 1664	False
CCCC(Cn1cncn1)c1ccc(Cl)cc1Cl (stereo not given)	Clostridium sporogenes DSM 1664	False
O=C(O)COc1ccc(Cl)cc1Cl	Clostridium sporogenes DSM 1664	False
CC(C)N1C(=O)c2ccccc2NS1(=O)=O	Clostridium sporogenes DSM 1664	False
COP(N)(=O)SC (stereo not given)	Clostridium sporogenes DSM 1664	False
C[C@]12CC[C@@H]3c4ccc(OC(=O)N(CCCl)CCCl)cc4CC[C@H]3[C@@H]1CC[C@@H]2O	Clostridium sporogenes DSM 1664	True
CON(C)C(=O)Nc1ccc(Cl)c(Cl)c1	Clostridium sporogenes DSM 1664	False
Cc1cc(C(C#N)c2ccc(Cl)cc2)c(Cl)cc1NC(=O)c1cc(I)cc(I)c1O (stereo not given)	Clostridium sporogenes DSM 1664	True
COP(=S)(OC)Oc1ccc(SC)c(C)c1	Clostridium sporogenes DSM 1664	False
O=[N+]([O-])/N=C1\NCCN1Cc1ccc(Cl)nc1	Clostridium sporogenes DSM 1664	False
C[C@]12CC[C@H](O)C[C@H]1CC[C@@H]1[C@@H]2CC[C@]2(C)[C@@H](C3=CC(=O)OC3)CC[C@]12O	Clostridium sporogenes DSM 1664	False
C[N+]1(C)CCOC(O)(c2ccc(-c3ccc(C4(O)C[N+](C)(C)CCO4)cc3)cc2)C1 (stereo not given) [Hemicholinium bromide]	Clostridium sporogenes DSM 1664	False
CN1CCN(C(=O)OC2c3nccnc3C(=O)N2c2ccc(Cl)cn2)CC1 (stereo not given)	Clostridium sporogenes DSM 1664	False
C[C@@H]1[C@@H](c2ccc(Cl)cc2)SC(=O)N1C(=O)NC1CCCCC1	Clostridium sporogenes DSM 1664	False
Nc1c([N+](=O)[O-])ccc(Oc2ccccc2)c1Cl	Clostridium sporogenes DSM 1664	False
C[C@@H]1CC[C@H]2[C@@H](C)C(=O)O[C@@H]3O[C@@]4(C)CC[C@@H]1[C@]32OO4	Clostridium sporogenes DSM 1664	False
CNC(=O)Oc1cccc(/N=C/N(C)C)c1	Clostridium sporogenes DSM 1664	False
Nc1ccncc1	Clostridium sporogenes DSM 1664	False
CCOCn1c(-c2ccc(Cl)cc2)c(C#N)c(Br)c1C(F)(F)F	Clostridium sporogenes DSM 1664	False
COc1ccc(CCN2CCC(Nc3nc4ccccc4n3Cc3ccc(F)cc3)CC2)cc1	Clostridium sporogenes DSM 1664	False
CC(C1CC1)C(O)(Cn1cncn1)c1ccc(Cl)cc1 (mixture of isomers)	Clostridium sporogenes DSM 1664	False
C=CCC1(CC(C)C)C(=O)NC(=O)NC1=O	Clostridium sporogenes DSM 1664	False

Ref: the supplement of paper PMC12494721
